B1: WDR88 (parent)
chain: LLTITKAHSNAISNCCFTFSGHFL

Variants of: B1
Assay: protein stability index of a GFP-peptide fusion (GPS, HEK-293T) (PSI 1-6); higher = more stable;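 also: lentivirally expressed fusions sorted by FACS into six bins by GFP to DsRed ratio, PSI derived from sequencing read proportions per bin multiplied by bin number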
Conditions: c terminus: a fixed tail appended
# label = satisfied if protein stability index >= 3 else not satisfied

K6N    satisfied
T18F    not satisfied
A11K    not satisfied
S9N    satisfied

Given the entry "K6W" , answer whether its protein stability index meets or surpasses 3.
satisfied

Same question for "L24I" please.
satisfied

Same question for "K6S" please.
not satisfied

Same question for "I12H" please.
satisfied

Same question for "S9A" please.
satisfied

Same question for "F23D" please.
not satisfied

Same question for "N14C" please.
satisfied

Same question for "T5E" please.
not satisfied
